Data origin: patent US11964973B2

# measured-on: full length human DGKζ (Homo sapiens (Human), UniProt Q13574)
# Sequence (Q13574 whole entry, looked up): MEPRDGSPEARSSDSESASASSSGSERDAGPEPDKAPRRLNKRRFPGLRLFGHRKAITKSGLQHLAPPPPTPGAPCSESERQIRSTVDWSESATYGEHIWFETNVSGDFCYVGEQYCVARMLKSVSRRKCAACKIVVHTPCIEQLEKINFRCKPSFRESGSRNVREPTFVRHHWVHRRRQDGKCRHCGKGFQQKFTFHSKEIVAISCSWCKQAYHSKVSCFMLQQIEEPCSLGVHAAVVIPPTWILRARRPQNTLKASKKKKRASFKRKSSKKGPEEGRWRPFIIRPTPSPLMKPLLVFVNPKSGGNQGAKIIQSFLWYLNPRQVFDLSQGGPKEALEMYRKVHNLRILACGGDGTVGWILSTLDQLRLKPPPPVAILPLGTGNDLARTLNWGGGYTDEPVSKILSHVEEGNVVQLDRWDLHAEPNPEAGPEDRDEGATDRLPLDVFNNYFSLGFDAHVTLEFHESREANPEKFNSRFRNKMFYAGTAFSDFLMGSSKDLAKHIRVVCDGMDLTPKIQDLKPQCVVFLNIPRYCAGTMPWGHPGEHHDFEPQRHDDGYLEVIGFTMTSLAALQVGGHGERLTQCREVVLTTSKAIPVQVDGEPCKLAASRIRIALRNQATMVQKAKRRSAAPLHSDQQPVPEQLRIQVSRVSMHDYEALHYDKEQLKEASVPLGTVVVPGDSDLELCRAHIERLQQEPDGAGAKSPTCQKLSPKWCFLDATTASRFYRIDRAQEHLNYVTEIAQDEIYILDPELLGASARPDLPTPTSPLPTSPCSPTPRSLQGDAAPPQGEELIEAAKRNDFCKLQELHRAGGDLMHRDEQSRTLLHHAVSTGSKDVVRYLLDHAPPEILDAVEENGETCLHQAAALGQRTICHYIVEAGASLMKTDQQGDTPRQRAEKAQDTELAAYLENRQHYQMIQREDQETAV
# experimental-details: In vitro DGK inhibition assay, Method B (DGKζ LIPGLO, extruded liposomes)
# Type: biochemical
measured-property: IC50
Dear colleague, please send the value followed by its unit.

Which IC50 is listed for C[C@@H]1CN(c2cc(=O)n(C)c3ccc(C#N)nc23)[C@@H](C)CC1N(C)C(=O)c1ccc(F)cc1 (single isomer, unassigned) [Example 283B] ?
42 µM

---

# measured-on: Human DGKα(9-727) (Homo sapiens (Human), UniProt P23743)
# Sequence (P23743 whole entry, looked up): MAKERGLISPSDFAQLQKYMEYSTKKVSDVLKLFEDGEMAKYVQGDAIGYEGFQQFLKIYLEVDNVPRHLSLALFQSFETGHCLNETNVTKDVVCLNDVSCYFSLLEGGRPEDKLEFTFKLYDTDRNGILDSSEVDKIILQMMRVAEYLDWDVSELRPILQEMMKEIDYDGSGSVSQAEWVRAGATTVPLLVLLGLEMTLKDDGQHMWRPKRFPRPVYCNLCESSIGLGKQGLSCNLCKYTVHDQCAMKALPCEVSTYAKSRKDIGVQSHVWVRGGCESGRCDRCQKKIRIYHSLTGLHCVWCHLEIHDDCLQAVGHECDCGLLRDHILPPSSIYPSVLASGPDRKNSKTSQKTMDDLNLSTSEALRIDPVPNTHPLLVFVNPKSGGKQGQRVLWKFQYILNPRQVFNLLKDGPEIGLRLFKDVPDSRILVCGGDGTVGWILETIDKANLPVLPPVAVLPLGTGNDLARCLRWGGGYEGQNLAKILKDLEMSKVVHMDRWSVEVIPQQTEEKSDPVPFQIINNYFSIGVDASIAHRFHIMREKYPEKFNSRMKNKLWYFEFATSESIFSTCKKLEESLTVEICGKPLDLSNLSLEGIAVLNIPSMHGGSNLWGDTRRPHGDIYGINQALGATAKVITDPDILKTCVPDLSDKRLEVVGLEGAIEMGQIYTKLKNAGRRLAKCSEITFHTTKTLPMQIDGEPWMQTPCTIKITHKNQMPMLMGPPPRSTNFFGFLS
# experimental-details: biochemical
# conditions-used: liposome (LIPGLO) assay; Table A; read-out: DGKα LIPGLO IC50
Labelling field: enter 1 if recorded IC50 is less than 1000 nM. Enter 0 if it equals or exceeds that cut-off.

Answered cases to consult:
[[record]]
compound = "CCO[C@H]1CN(c2cc(=O)n(C)c3ccc(C#N)nc23)CC[C@@H]1OCc1cccc(C(F)(F)F)c1 (single isomer, unassigned) [Example 382]"
measured_on = "Human DGKα(9-727) (Homo sapiens (Human), UniProt P23743)"
label = 0

[[record]]
compound = "CCO[C@H]1CN(c2cc(=O)n(C)c3ccc(C#N)nc23)CC[C@@H]1Oc1cnc(OC(C)C)cn1 [Example 378]"
measured_on = "Human DGKα(9-727) (Homo sapiens (Human), UniProt P23743)"
label = 0

[[record]]
compound = "C[C@@H]1CN(c2cc(=O)n(C)c3ccc(C#N)nc23)[C@@H](C)CC1N(C)C(=O)c1ccc(F)cc1 (single isomer, unassigned) [Example 283B]"
measured_on = "Human DGKα(9-727) (Homo sapiens (Human), UniProt P23743)"
label = 0

[[record]]
compound = "CCO[C@H]1CN(c2cc(=O)n(C)c3ccc(C#N)nc23)CC[C@@H]1OCc1cccc(C(F)(F)F)c1 [Example 381]"
measured_on = "Human DGKα(9-727) (Homo sapiens (Human), UniProt P23743)"
label = 1

[[record]]
compound = "CCO[C@@H]1CN(c2nc(=O)n(C)c3ccc(C#N)nc23)CC[C@H]1Oc1ccc(OC(C)C)cn1 (relative stereo) [Example 400]"
measured_on = "Human DGKα(9-727) (Homo sapiens (Human), UniProt P23743)"
label = 0


Report whether reported IC50 is lower than 1000 nM (strictly) for CCO[C@H]1CN(c2nc(=O)n(C)c3ccc(C#N)nc23)CC[C@@H]1Oc1ccccc1 (relative stereo) [Example 402]
0

Lab note: IC50 threshold 1000 nM. Does this compound come in strictly under it? CCO[C@H]1CN(c2cc(=O)n(C)c3ccc(C#N)nc23)CC[C@@H]1Oc1ncc(OC(C)C)cn1 [Example 379]
1

Is it true that IC50 reported for CC(C)O[C@@H]1CN(c2cc(=O)n(C)c3ccc(C#N)nc23)CC[C@H]1Oc1cccc(C(F)(F)F)c1 (relative stereo) [Example 396] is less than 1000 nM?
0

# strict comparison: is reported IC50 < 1000 nM? input = CCO[C@H]1CN(c2cc(=O)n(C)c3ccc(C#N)nc23)CC[C@@H]1Oc1ncc(OC(C)C)cn1 [Example 380]
0

Consider the compound Cn1c(=O)cc(N2CC[C@@H](Oc3cccc(C(F)(F)F)c3)[C@H](OCCN3CCOCC3)C2)c2nc(C#N)ccc21 [Example 392] . Is its IC50 strictly less than 1000 nM?
0
